Tested on: TNFα production in THP-1 cells
assay-remarks: LPS induced TNFα production assay in THP-1 cells
Type: cell-based
condition-description: Homo sapiens, 300 ng/mL LPS, measured at 5 hours
assay-metric: IC50

# annotated cases, reported IC50 shown
[
  {
    "chemical-smiles": "N#Cc1ccc2ncnc(N[C@H]3CC[C@H](N4CCC5(CC4)CC5)CC3)c2c1",
    "system-name": "TNFα production in THP-1 cells",
    "IC50": "≤ 500 nM"
  },
  {
    "chemical-smiles": "Clc1ccc2ncnc(N[C@H]3CC[C@H](N4CCOCC4)CC3)c2c1",
    "system-name": "TNFα production in THP-1 cells",
    "IC50": "≤ 500 nM"
  },
  {
    "chemical-smiles": "CCc1ccc2ncnc(N[C@H]3CC[C@H](N4CCOCC4)CC3)c2c1",
    "system-name": "TNFα production in THP-1 cells",
    "IC50": "≤ 500 nM"
  },
  {
    "chemical-smiles": "CN(C)[C@H]1CC[C@H](Nc2ncnc3ccc(CC#N)cc23)CC1",
    "system-name": "TNFα production in THP-1 cells",
    "IC50": "500 to 5000 nM"
  }
]

stdin: TNFα production in THP-1 cells / IC50 / `N#Cc1ccc2nc(Nc3cnn(CCOCCO)c3)nc(N[C@H]3CC[C@H](N4CCOCC4)CC3)c2c1` : value?
stdout: 500 to 5000 nM
